Biological target: Prostaglandin G/H synthase 1 (Ovis aries, UniProt P05979)
Sequence (P05979 whole entry): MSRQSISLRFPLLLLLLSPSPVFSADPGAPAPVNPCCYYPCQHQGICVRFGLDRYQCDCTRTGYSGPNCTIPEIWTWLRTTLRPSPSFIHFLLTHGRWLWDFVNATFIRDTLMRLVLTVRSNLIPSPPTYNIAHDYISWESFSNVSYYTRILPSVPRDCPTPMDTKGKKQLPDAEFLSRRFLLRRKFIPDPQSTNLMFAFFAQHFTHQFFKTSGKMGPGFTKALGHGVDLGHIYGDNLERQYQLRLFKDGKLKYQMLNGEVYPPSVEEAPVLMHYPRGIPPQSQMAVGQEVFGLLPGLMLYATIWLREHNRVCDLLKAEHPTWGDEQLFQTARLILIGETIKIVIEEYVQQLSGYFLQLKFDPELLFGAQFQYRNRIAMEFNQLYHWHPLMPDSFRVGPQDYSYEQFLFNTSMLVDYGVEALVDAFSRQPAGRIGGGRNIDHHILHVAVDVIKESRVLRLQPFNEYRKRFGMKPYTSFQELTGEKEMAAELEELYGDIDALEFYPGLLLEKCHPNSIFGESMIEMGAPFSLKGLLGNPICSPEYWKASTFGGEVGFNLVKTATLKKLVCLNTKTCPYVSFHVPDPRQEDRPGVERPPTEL

Smi	Target Of Assay	IC50, µM
Cc1ccc(Cl)c(Nc2ccccc2C(=O)NCC(=O)O)c1Cl	Prostaglandin G/H synthase 1 (Ovis aries, UniProt P05979)	0.3
